B1: glmS ribozyme (parent)
chain: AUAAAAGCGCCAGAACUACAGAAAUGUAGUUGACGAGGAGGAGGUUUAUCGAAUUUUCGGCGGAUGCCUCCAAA

variants of: B1; assay: self-cleavage kobs at 640 uM GlcN6P; higher = faster cleavage; RNA array; settings: with glucosamine-6-phosphate
Fewer inactive variants are shown than the library holds.
Listing of entries alongside the reported self-cleavage kobs at 640 uM GlcN6P.

Worked cases, answers included:
Request: Endpoint output: self-cleavage kobs at 640 uM GlcN6P of G43C C58A . Value?
Response: < 1e-05 s⁻¹

Request: // next record A64G U65G
Response: 0.000845 s⁻¹

Request: Continue with G37U G38A G41U U49A A52U G59U C67A
Response: < 1e-05 s⁻¹

Others:
Request: Query: self-cleavage kobs at 640 uM GlcN6P; subject: U30A A42C C71U
Response: < 1e-05 s⁻¹

Request: Follow-up entry: A12U A48G U49G
Response: 6.79e-05 s⁻¹

Request: Query A52C U65A next
Response: < 1e-05 s⁻¹

Request: Please do the same for C34U C71U as well.
Response: < 1e-05 s⁻¹

Request: Another variant: G32U G63C
Response: < 1e-05 s⁻¹

Request: Then what about the variant C10A U69A ?
Response: 0.00013 s⁻¹

Request: One more variant: G9U A14G U54A U56C G59A G63A U65G
Response: < 1e-05 s⁻¹

Request: Field entry: A15G C16A
Response: 0.000305 s⁻¹

Request: Further, for G9A C61A ?
Response: < 1e-05 s⁻¹

Request: Query G38U G43U U46A A48U C61A C67G next
Response: < 1e-05 s⁻¹

Request: One more variant: U30G U31G U49G U69G
Response: 7.71e-05 s⁻¹

Request: Can you handle G43C G51U C61G next?
Response: < 1e-05 s⁻¹

Request: And then C8A G13U C16A A33U U65G C71A , what is it?
Response: < 1e-05 s⁻¹

Request: Please answer likewise for A36G U47G
Response: < 1e-05 s⁻¹

Request: Okay, and U30G U47A G60U ?
Response: < 1e-05 s⁻¹

Request: Would you mind doing A12U A48C as well?
Response: 0.000142 s⁻¹

Request: Also need "U45G" , thanks.
Response: 0.00227 s⁻¹

Request: Another variant to check: A52G C71G
Response: 7.87e-05 s⁻¹

Request: Try A39C U45A C68G next.
Response: < 1e-05 s⁻¹

Request: Another variant: A6G C61G C71G
Response: 7.45e-05 s⁻¹

Request: Now the same for C11U A36G
Response: < 1e-05 s⁻¹

Request: Then this variant: A15C C16G G43U U56C A64U C68A
Response: < 1e-05 s⁻¹

Request: Continue with A1U U2G A3G A5U A6C G7C C8A G9U C10A C11A
Response: < 1e-05 s⁻¹

Request: Quick one: A12G G32A A33U C70G
Response: < 1e-05 s⁻¹

Request: Entry to check: U30C A52U
Response: < 1e-05 s⁻¹

Request: Likewise for A39G G44A C58A ?
Response: < 1e-05 s⁻¹

Request: Proceed to A15G U49G U65G C70A
Response: 0.00349 s⁻¹

Request: Param item: G41U A42U C50G
Response: < 1e-05 s⁻¹
